Data origin, for the record: ChEMBL document CHEMBL1765012

Assay system: Orotidine 5'-phosphate decarboxylase (Methanobacterium thermoautotrophicum)
Sequence (O26232 whole entry): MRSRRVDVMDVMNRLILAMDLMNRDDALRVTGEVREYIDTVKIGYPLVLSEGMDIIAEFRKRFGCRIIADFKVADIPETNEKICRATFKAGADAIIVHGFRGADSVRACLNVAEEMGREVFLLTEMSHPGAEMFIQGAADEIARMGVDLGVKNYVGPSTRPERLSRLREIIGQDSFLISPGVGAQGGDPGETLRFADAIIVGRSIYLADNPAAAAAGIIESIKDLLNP
Test description: Irreversible inhibition of Methanobacterium thermoautotrophicum 5'-monophosphate decarboxylase
Assay endpoint: Ki (mM)

                                   molecule  unit_annotation  quantitative_result
0  [N-]=[N+]=Nc1cc(=O)[nH]c(=O)n1[C@@H]1O[C@H](COP(=O)(O)O)[C@@H](O)[C@H]1F               mM                  1.2
